target: UniProt:P15390; experiment: Two-electrode voltage-clamp on Xenopus laevis oocytes expressing NaV1.4; details: read-out: Maximum % inhibition NaV1.4, peptide at 100 μM
Sequence (P15390 whole entry): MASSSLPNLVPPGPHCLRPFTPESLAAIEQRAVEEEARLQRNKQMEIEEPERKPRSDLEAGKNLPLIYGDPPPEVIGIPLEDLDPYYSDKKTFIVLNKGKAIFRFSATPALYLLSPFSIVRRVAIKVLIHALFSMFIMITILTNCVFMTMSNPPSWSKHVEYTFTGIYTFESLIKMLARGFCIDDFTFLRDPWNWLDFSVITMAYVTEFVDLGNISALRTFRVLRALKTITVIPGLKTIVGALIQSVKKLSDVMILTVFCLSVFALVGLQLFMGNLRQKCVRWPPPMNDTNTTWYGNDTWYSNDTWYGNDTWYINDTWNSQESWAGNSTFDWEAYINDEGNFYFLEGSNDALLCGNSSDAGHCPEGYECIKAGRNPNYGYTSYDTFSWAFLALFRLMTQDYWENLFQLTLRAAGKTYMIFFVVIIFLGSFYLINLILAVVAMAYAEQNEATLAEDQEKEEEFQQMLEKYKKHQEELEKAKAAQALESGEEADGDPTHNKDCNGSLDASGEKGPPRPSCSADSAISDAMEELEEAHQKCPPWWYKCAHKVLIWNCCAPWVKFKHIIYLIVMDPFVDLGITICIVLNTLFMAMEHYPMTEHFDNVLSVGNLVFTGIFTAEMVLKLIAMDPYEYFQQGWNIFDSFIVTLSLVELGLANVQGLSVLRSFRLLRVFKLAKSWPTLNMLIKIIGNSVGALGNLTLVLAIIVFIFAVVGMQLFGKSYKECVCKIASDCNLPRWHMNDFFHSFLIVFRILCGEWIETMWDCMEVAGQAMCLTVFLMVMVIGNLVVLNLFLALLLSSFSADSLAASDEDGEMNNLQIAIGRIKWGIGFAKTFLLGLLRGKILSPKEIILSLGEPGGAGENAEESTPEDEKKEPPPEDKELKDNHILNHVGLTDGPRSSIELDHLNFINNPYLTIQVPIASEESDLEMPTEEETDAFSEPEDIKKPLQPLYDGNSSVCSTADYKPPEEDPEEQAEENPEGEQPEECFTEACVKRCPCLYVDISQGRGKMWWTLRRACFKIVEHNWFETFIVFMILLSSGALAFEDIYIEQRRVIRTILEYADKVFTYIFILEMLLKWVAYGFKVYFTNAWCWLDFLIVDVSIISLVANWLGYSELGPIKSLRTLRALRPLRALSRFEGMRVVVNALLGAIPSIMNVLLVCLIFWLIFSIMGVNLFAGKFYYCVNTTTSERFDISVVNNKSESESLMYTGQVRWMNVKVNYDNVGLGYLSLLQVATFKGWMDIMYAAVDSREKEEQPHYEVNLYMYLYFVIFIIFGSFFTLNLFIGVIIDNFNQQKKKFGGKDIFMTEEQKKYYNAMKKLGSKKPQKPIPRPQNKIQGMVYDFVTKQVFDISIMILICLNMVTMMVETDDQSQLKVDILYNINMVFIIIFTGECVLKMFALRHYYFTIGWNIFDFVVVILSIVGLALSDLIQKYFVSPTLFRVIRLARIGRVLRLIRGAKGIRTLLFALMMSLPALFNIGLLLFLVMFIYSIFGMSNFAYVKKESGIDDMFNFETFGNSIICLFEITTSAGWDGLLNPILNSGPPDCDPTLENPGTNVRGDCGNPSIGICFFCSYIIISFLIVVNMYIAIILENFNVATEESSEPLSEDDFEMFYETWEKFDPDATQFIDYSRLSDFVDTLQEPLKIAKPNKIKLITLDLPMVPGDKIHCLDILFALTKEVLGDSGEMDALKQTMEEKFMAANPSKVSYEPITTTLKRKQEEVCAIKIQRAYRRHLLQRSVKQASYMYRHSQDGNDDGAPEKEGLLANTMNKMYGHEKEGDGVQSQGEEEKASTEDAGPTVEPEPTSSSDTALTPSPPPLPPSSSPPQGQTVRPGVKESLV
Sequence (Q00954 19-218, further chain): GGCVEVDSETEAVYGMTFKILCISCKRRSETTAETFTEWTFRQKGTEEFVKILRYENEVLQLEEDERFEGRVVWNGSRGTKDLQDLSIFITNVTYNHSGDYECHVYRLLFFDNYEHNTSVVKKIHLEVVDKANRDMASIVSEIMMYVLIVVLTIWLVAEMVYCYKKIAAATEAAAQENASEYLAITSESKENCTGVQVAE
Where a SMILES comes first, the peptide text is derived from it. Bridges are numbered along the chain shown (N, C = ends).
For each record, write down the corresponding inhibition at 100 µM.
Record the result as number plus unit.

Hello, please tell me recorded inhibition at 100 µM for this one: C[C@@H]1NC(=O)[C@H](CCCCN)NC(=O)[C@H](CCCNC(=N)N)NC(=O)[C@H](CCCNC(=N)N)NC(=O)[C@@H](N)CSSC[C@@H](C(N)=O)NC(=O)[C@H](CCCNC(=N)N)NC(=O)[C@H](CC(N)=O)NC(=O)[C@H](Cc2c[nH]c3ccccc23)NC(=O)[C@H](CCCNC(=N)N)NC1=O [PnCS1[W4K], CRRKARWNRC ^*] (H-CRRKARWNRC-NH2; disulfide 1-10) 94%

Hello, please tell me recorded inhibition at 100 µM for this one: C[C@@H]1NC(=O)[C@H](Cc2c[nH]c3ccccc23)NC(=O)[C@H](CCCNC(=N)N)NC(=O)[C@H](CCCNC(=N)N)NC(=O)[C@@H](N)CSSC[C@@H](C(N)=O)NC(=O)[C@H](CCCNC(=N)N)NC(=O)[C@H](CC(N)=O)NC(=O)[C@H](CCC(=O)O)NC(=O)[C@H](CCCNC(=N)N)NC1=O [PnCS1[W7E], CRRWARENRC ^*] (H-CRRWARENRC-NH2; disulfide 1-10) 42%
